Recorded EC50, one value per entry.
- experimental-system: human TLR8 (Homo sapiens, UniProt Q9NR97)
- Construct: host or cells: HEK293 reporter cells
- Sequence (Q9NR97 27-1041): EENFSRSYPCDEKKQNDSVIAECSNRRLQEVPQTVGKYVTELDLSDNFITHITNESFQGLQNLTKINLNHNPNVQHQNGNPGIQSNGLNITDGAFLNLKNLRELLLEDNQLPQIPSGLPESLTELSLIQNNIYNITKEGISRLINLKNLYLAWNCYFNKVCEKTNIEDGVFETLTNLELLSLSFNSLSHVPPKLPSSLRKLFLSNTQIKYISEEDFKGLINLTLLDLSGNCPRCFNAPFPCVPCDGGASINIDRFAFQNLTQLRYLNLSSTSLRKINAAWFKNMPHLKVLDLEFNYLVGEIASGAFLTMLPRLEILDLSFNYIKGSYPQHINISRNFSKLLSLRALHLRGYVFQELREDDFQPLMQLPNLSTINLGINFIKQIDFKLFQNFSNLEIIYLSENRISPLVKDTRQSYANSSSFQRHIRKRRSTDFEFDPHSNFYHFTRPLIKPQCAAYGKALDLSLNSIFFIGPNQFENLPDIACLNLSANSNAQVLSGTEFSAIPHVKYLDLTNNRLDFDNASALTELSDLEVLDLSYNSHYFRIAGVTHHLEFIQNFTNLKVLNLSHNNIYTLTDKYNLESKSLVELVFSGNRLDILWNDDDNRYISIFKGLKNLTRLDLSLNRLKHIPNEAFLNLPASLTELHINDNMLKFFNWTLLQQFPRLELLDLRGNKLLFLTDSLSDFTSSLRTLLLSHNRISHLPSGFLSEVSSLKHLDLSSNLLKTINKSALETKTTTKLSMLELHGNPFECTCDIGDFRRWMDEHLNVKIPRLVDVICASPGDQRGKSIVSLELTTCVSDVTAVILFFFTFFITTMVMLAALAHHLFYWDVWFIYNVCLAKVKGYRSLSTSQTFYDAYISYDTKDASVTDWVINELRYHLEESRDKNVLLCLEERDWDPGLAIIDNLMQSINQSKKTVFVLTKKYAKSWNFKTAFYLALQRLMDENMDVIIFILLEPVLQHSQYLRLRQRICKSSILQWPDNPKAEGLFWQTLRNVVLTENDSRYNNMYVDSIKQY
- measurement-protocol: HEK293 NFKB reporter assay, human TLR8
- Assay type: cell-based
- settings: HEK293 NFKB reporter cells expressing human TLR8; read-out: HEK293 hTLR8 EC50
Expressed in µM, but write only the number.

[
  {
    "line-notation": "CCCN(CCCNC(=O)NCC)C(=O)C1=Cc2sc(CCCCCNC(=O)OC(C)(C)C)cc2N=C(N)C1",
    "units": "µM",
    "EC50": 3.37
  }
]

Exercise: Form field: reported EC50 of CCCN(OCC)C(=O)C1=Cc2sc(C#CC3CNC3)cc2N=C(N)C1
Key: 1.52

Exercise: Same again, this time with CCCN(C[C@H]1C[C@H](CN)C1)C(=O)C1=Cc2sccc2N=C(N)C1
Key: 4.3

Exercise: Would you kindly repeat that for CCCN(CCCNC(=O)OC1CCC1)C(=O)C1=Cc2sc(CNC(=O)c3ccccc3)cc2N=C(N)C1 ?
Key: 3.25

Exercise: Next compound: CCCN(CCCNC(=O)OC(C)(C)C)C(=O)C1=Cc2sc(CCCCCN)cc2N=C(N)C1
Key: 3.01

Exercise: Consider next the compound CCCN(Cc1ccc(CN)cc1)C(=O)C1=Cc2sccc2N=C(N)C1 in the same way.
Key: 0.641

Exercise: Input CCCN(OCC)C(=O)C1=Cc2sc(CN3C[C@H]4CNC[C@H]4C3)cc2N=C(N)C1
Key: 0.418
